# Test system: HeLa
# TEST_SUMMARY: Cytotoxicity against human HeLa cells assessed as inhibition of cell growth incubated for 48 hrs by DAPI staining based high-content imaging analysis
# Type: functional
Record form. Attribute: pIC50. Fill in for each entry.
Answers are plain numbers, as −log10 of the molar value.

Study these solved cases before continuing.
- CC(=O)O[C@@H]1/C=C/[C@](C)(O)C[C@@H](C)C/C=C/[C@H]2C=C(C)[C@@H](C)[C@H]3[C@H](Cc4ccccc4)NC(=O)[C@]321: 4.91
- CC1=C[C@@H]2/C=C/C[C@H](C)C[C@@](C)(O)/C=C/C(=O)[C@]23C(=O)N[C@@H](Cc2ccccc2)[C@@H]3[C@@H]1C: 5.70
- CC1=C[C@H]2[C@H]3OC(=O)[C@@]24C(=N[C@@H](Cc2ccccc2)[C@@H]4[C@@H]1C)C[C@H]1[C@H]3C[C@H](C)C[C@@]1(C)O: 4.56

Now turn to the next molecule.
**Query** Entry `C=C1[C@@H](C)[C@H]2[C@H](Cc3ccccc3)NC(=O)[C@]23[C@H](OC(C)=O)/C=C/[C@](C)(O)C[C@@H](C)C/C=C/[C@H]3[C@@H]1O` has what pIC50?
**Result** 6.05

Where do these numbers come from? They come from ChEMBL document CHEMBL6153107.
